# Assay summary: Pharmacokinetics of AUY922 and its glucuronide metabolite BJP762 in blood (LC-MS/MS, non-compartmental)
# Type: in vivo, human (Japanese patients with advanced solid tumors)
# Measurement context: human, blood, iv, 70 mg/m2
Reported endpoint: half-life (h)
Unit h implied. Number only.

-- ask Look up half-life for this molecule: CCNC(=O)c1noc(-c2cc(C(C)C)c(O)cc2O)c1-c1ccc(CN2CCOCC2)cc1 [AUY922]
-- reply 127

====

# Assay summary: Pharmacokinetics of AUY922 and its glucuronide metabolite BJP762 in blood (LC-MS/MS, non-compartmental)
# Type: in vivo, human (Japanese patients with advanced solid tumors)
# Measurement context: human, whole blood, iv, 28 mg/m2
Reported endpoint: Cmax (ng/mL)
Unit ng/mL implied. Number only.

-- ask Look up Cmax for this compound: "CCNC(=O)c1noc(-c2cc(C(C)C)c(O)cc2O)c1-c1ccc(CN2CCOCC2)cc1"
-- reply 457
